System: NCI-H23 lung
protocol_summary: NCI-60 one-dose screen, 48 h
reported_conditions: 10 µM unless noted
Compounds without any hit were thinned out: in the full panel of roughly 83,000, 20% have a hit. The source made the active and inactive calls. The calls were made as follows: active = growth percent below 10; inactive = the rest.
Result category, one only: label 1 (active), label 0 (inactive)

Solved entries:
input: Field: outcome | Entry: CC(C)(C)CC(C)(C)c1ccc(OCCOCC[N+](C)(C)Cc2ccccc2)cc1
output: label 1

input: Field: outcome | Entry: Cn1cc(-c2nonc2-c2cn(C)c3ccc(F)cc23)c2cc(F)ccc21
output: label 0

input: Field: outcome | Entry: Cn1cc(-c2nonc2-c2cn(C)c3ccc(F)cc23)c2ccccc21
output: label 0

input: Field: outcome | Entry: COc1cc2nc(N3CCCC3)nc(NCCc3ccccc3)c2cc1OC
output: label 0

input: Field: outcome | Entry: C=C1C(=O)O[C@H]2[C@H]1CC/C(COC(=O)NCc1ccc(OC)c(OC)c1)=C\CC[C@@]1(C)O[C@@H]21
output: label 0

Next:
input: Field: outcome | Entry: Clc1ccc2nc3nc4ccc[nH]c4cc3c2c1
output: label 0

input: Field: outcome | Entry: CCNc1ncnc2c1cnn2C1CCCO1 (stereo not given)
output: label 0

input: Field: outcome | Entry: O=C(Nc1ccccc1Cl)c1ccc(NC2=C(Cl)C(=O)N(C3CCCCC3)C2=O)cc1
output: label 1

input: Field: outcome | Entry: Nc1n[nH]c2ccc([C@@H]3Nc4ccc5cn[nH]c5c4[C@H]4C5CCC(C5)[C@@H]34)cc12 (stereo not given in full)
output: label 0

input: Field: outcome | Entry: CCOC(=O)n1cc(-c2nonc2-c2cn(C)c3ncccc23)c2ccccc21
output: label 0

====

Test system: 786-0 renal
protocol_summary: NCI-60 one-dose screen, 48 h
reported_conditions: 10 µM unless noted
Compounds without any hit were thinned out: in the full panel of roughly 83,000, 20% have a hit. Active and inactive are the calls of the source. Rule for the calls: active = growth percent below 10; inactive = the rest.
Result category, one only: Y (active), N (inactive)

Solved entries:
input: Field: outcome | Entry: Cc1cc(N2CCSCC2)nc(NC2CCCC(Nc3ccnc4cc(Cl)ccc34)C2)n1 (stereo unspecified)
output: Y

input: Field: outcome | Entry: Cc1ccc(NC(=O)/C=C/c2ccccc2)c(C(N)=O)c1
output: N

input: Field: outcome | Entry: O=C(COc1cccc(/C=C2\CSc3ccccc3C2=O)c1)Nc1nccs1
output: N

Next:
input: Field: outcome | Entry: O=CNc1ccc2c(c1)Cc1cccc(NC=O)c1-2
output: N

input: Field: outcome | Entry: CC[C@]1(O)C[C@@H]2CN(CCc3c([nH]c4ccccc34)[C@@](C(=O)OC)(c3cc4c(cc3OC)N(C)[C@H]3[C@@](O)(C(N)=O)[C@H](O)[C@]5(CC)[C@@H]6C[C@@H]6CN6CC[C@]43[C@@H]65)C2)C1
output: N

input: Field: outcome | Entry: Brc1ccc(-c2csc(Nc3ccccn3)n2)cc1
output: N

input: Field: outcome | Entry: COc1ccc(/C=C/C(=O)c2cc(O)ccc2O)cc1
output: N

input: Field: outcome | Entry: Nc1nc2ncc(CCNc3ccc(C(=O)O)cc3)nc2c(=O)[nH]1
output: N

input: Field: outcome | Entry: CN1CCN(c2ccc(Nc3c4ccccc4nc4ccccc34)cc2)CC1
output: N

input: Field: outcome | Entry: O=C(O)c1ccc(NC(=O)c2ccc(-c3cccc([N+](=O)[O-])c3)o2)cc1
output: N

input: Field: outcome | Entry: CCc1nc(N)nc(N)c1C#CC(C)c1cc(-c2ccnc(C)c2)c2oc(C)nc2c1 (stereo unspecified)
output: Y
